Catalogue of pEC50 values
Target: Cannabinoid receptor 1 (Homo sapiens)
Sequence (P21554 whole entry): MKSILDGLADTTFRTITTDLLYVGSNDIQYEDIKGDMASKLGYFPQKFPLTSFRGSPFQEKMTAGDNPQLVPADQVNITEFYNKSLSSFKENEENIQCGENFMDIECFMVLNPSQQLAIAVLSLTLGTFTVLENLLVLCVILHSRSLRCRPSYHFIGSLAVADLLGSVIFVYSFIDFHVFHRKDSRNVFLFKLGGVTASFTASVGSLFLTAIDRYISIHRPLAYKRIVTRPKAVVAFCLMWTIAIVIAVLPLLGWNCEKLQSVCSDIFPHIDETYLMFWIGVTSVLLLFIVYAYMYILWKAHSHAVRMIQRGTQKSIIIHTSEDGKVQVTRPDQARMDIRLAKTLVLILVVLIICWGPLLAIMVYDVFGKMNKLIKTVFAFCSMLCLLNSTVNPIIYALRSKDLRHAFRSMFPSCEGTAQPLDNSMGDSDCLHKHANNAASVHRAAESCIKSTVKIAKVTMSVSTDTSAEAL
Experiment: Agonist activity at recombinant human CB1 receptor expressed in CHO cells assessed as inhibition of forskolin-induced cAMP accumulation preincubated for 15 mins followed by forskolin stimulation and measured after 15 mins by HTRF assay
pEC50 is a log-scale quantity: -log10 of the concentration expressed in molar.

CCCCCC[Si](C)(C)c1cc(O)c2c(c1)OC(C)(C)[C@@H]1CC=C(CO)C[C@@H]21 : 8.18

Specify pEC50 for CCCCCC[Si](C)(C)c1cc(O)c([C@H]2C=C(CO)[C@H]3C[C@@H]2C3(C)C)c(O)c1 and stop.
6.61

Specify pEC50 for CCCC[Si](C)(C)c1cc(O)c2c(c1)OC(C)(C)c1ccc(CO)cc1-2 and stop.
6.67

Specify pEC50 for CCCCCC[Si](C)(C)c1cc(O)c(C2CCCC2)c(OC)c1 and stop.
6.15

Specify pEC50 for CCCCCC[Si](C)(C)c1cc(O)c2c(c1)OC(C)(C)c1ccc(C)cc1-2 and stop.
7.91

Specify pEC50 for CCCCCC[Si](C)(C)c1cc(O)c(C2CCCCC2)c(OC)c1 and stop.
6.26

Specify pEC50 for CCCC[Si](C)(C)c1cc(O)c2c(c1)OC(C)(C)c1ccc(C)cc1-2 and stop.
6.40

###

Assay: Cmax in C57BL/6 mouse at 10 mg/kg, ip measured upto 24 hrs by LC-MS/MS analysis
Assay type: ADME, organism-based
Design: dose 10 mg/kg, time < 24 hrs, route ip
Details: in vivo
ASSAY_READOUT: Cmax
In your response, put the unit directly after the numeric value.

CCCCCC[Si](C)(C)c1cc(OC)c([C@H]2C=C(CO)[C@H]3C[C@@H]2C3(C)C)c(OC)c1 : 2520 ng/mL

Kindly consider the entry below.
Specify Cmax for C=C(C)[C@@H]1CCC(C)=C[C@H]1c1c(O)cc([Si](C)(C)CCCCCC)cc1O and stop.
1510 ng/mL

###

Assay: AUCinfinity in C57BL/6 mouse at 10 mg/kg, ip measured upto 24 hrs by LC/MS-MS analysis
Format: ADME, organism-based
Set-up: dose 10 mg/kg, time < 24 hrs, route ip
Conditions: in vivo
ASSAY_READOUT: AUC(0-inf) (ng·h/mL)
Numbers only here, please. The scale is ng·h/mL.

CCCCCC[Si](C)(C)c1cc(OC)c([C@H]2C=C(CO)[C@H]3C[C@@H]2C3(C)C)c(OC)c1 : 12300

Kindly consider the entry below.
Specify AUC(0-inf) for C=C(C)[C@@H]1CCC(C)=C[C@H]1c1c(O)cc([Si](C)(C)CCCCCC)cc1O and stop.
6840

###

Catalogue of Emax values
Molecular target: Cannabinoid receptor 2 (Homo sapiens)
Sequence (P34972 whole entry): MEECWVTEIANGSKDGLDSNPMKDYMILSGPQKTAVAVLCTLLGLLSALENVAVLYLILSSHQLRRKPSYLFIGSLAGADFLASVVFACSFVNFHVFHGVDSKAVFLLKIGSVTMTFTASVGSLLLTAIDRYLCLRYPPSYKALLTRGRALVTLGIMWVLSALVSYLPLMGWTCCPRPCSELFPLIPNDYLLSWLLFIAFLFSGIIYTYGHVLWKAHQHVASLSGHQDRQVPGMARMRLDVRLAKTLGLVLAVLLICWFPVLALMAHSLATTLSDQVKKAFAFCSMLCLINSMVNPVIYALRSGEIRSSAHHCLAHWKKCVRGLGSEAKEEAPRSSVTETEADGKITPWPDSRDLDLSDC
Assay: Agonist activity at recombinant human CB2 receptor expressed in CHO cells assessed as inhibition of forskolin-induced cAMP accumulation by measuring maximum efficacy preincubated for 15 mins followed by forskolin stimulation and measured after 15 mins by HTRF assay relative to control
Assay type: functional, cell-based
Conditions: filed as agonist, time 30.0 min
Numbers only here, please. The scale is %.

Record excerpt, results attached:
CCCCCC[Si](C)(C)c1cc(O)c(C2CCCCCC2)c(O)c1 : 92
CCCC[Si](C)(C)c1cc(O)c2c(c1)OC(C)(C)[C@@H]1CC=C(CO)C[C@@H]21 : 91.2

Kindly consider the entry below.
Specify Emax for CCCCCC[Si](C)(C)c1cc(O)c(C2CCCC2)c(OC)c1 and stop.
89.8
